target: Casein kinase I isoform delta (Homo sapiens, UniProt P48730); assay: Inhibition of CK1delta by microfluidic mobility shift assay
Sequence (P48730 whole entry, canonical isoform): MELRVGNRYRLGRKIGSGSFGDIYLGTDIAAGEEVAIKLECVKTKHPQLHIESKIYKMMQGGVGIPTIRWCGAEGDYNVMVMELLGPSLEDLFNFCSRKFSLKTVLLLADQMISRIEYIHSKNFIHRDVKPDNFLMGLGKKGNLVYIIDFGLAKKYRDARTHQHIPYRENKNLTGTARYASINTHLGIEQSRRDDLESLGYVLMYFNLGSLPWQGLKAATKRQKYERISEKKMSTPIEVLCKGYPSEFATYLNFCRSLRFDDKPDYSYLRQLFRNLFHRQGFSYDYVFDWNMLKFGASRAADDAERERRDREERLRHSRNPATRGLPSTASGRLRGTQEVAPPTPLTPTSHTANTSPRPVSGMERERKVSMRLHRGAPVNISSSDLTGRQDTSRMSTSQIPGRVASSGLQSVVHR
measurement name: IC50
Field: value (include unit after the number)

## Input Item under review: "CN1CCN(c2ccc(-c3cc4c(c(N)nn4C)c(=O)[nH]3)cc2)CC1" . Reported IC50?
## Output 39 µM

---

Entries and their measured inhibition follow.
target: UniProt:P00519; assay: Inhibition of ABL at 30 uM by microfluidic mobility shift assay
Sequence (P00519 whole entry): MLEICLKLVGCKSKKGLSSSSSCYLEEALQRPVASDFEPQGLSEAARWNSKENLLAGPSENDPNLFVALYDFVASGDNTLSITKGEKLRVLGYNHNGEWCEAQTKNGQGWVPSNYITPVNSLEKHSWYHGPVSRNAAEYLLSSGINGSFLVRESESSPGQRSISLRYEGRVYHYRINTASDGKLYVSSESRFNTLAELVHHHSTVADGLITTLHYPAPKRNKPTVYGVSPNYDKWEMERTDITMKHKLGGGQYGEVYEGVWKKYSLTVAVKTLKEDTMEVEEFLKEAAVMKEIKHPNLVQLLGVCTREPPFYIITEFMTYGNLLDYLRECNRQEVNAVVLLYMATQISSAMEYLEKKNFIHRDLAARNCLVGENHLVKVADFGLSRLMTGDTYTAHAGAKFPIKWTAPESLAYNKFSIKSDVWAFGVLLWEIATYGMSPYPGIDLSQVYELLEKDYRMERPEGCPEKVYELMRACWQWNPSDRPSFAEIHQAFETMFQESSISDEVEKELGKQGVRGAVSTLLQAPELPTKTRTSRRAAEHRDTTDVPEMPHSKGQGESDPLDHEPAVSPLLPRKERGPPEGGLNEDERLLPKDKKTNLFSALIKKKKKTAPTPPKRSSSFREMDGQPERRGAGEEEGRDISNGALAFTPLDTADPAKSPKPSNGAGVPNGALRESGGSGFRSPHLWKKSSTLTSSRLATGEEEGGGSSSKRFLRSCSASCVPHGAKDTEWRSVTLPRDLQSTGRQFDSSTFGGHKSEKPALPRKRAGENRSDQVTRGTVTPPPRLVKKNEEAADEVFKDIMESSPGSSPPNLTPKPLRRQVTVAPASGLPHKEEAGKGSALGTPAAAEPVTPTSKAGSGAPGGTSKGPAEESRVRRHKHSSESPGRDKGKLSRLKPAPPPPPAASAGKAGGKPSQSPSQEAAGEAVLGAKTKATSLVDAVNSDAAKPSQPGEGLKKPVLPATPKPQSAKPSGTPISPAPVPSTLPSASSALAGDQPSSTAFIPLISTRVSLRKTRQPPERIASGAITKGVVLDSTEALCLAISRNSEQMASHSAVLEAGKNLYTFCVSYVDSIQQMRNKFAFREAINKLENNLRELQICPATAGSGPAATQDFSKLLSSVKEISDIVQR
Respond numerically; units are % and should not be typed.

Guide cases for inhibition, answers given:
smiles input	endpoint result
Cc1cc2[nH]nc(N)c2cn1	11
CN1CCN(c2ccc(-c3cc4nn(-c5ccccc5)c(N)c4c(=O)[nH]3)cc2)CC1	99
Nc1n[nH]c2cc(-c3ccncc3)[nH]c(=O)c12	28
COCCNc1nc(C)cc2c1c(N)nn2C	-8
Cn1nc(N)c2c(=O)[nH]c(-c3ccccn3)cc21	27

From here, focus on the item given below.
## Input What inhibition appears in the records for this molecule with UniProt:P00519? "CC(=O)Nc1nn(C)c2cc(-c3ccccc3)[nH]c(=O)c12"
## Output 10

---

Reported inhibition by item:
biological target: Proto-oncogene tyrosine-protein kinase Src (Homo sapiens, UniProt P12931); test: Inhibition of SRC at 30 uM by microfluidic mobility shift assay
Sequence (P12931 2-536 limits assumed): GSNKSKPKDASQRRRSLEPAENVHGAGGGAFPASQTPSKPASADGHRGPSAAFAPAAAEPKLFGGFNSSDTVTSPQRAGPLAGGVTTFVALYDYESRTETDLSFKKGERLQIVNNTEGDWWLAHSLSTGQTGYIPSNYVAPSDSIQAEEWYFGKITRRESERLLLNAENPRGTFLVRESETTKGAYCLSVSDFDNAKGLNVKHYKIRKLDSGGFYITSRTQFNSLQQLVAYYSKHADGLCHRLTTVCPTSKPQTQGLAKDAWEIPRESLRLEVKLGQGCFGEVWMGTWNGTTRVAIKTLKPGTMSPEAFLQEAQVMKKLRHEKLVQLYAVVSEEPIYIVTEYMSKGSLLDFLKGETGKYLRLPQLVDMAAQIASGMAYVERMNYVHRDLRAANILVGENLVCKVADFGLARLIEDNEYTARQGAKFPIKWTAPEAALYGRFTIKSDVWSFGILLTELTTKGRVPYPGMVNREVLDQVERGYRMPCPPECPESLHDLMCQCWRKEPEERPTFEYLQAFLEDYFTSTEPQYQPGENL
Note: unit % is implicit; provide only the numeric part.

Examples with answers:
smiles input	unit string	inhibition
Cn1nc(N)c2cnc(-c3ccccc3)cc21	%	7
CN1CCN(c2ccc(-c3cc4nn(-c5ccccc5)c(N)c4c(=O)[nH]3)cc2)CC1	%	99
Nc1n[nH]c2cc(-c3ccccn3)[nH]c(=O)c12	%	63

## Input Checklist item: inhibition tested on Proto-oncogene tyrosine-protein kinase Src (Homo sapiens, UniProt P12931), entry "CN1CCN(c2ccc(-c3cc4c(c(N)nn4C)c(=O)[nH]3)cc2)CC1" , value?
## Output 80

## Input // same read-out, input: "CN1CCN(c2ccc(-c3cc4[nH]nc(N)c4c(=O)[nH]3)cc2)CC1"
## Output 85

## Input Then what about the molecule "Nc1n[nH]c2cc(-c3cccs3)[nH]c(=O)c12" ?
## Output 74

---

target: UniProt O14965; experiment: Inhibition of AurA at 30 uM by microfluidic mobility shift assay
Sequence (O14965 whole entry): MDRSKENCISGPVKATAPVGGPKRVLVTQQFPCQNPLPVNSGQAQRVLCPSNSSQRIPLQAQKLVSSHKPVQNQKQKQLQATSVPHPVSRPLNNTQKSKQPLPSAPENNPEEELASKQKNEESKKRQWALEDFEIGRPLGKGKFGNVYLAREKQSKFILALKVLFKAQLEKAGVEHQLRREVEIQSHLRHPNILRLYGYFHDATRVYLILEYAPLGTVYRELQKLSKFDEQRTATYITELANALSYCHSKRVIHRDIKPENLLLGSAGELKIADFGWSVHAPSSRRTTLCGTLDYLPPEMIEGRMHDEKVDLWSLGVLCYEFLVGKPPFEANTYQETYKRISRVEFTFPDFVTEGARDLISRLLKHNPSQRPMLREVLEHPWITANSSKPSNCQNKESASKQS
measurement name: inhibition (%)
Write the answer as a number in %, unit excluded.

smiles input	measurement name	endpoint result
CN1CCN(c2ccc(-c3cc4nn(-c5ccccc5)c(N)c4c(=O)[nH]3)cc2)CC1	inhibition	66
CC(C)(C)c1cc2[nH]nc(N)c2c(=O)[nH]1	inhibition	34

Moving on to the next molecule.
## Input Entry "Nc1n[nH]c2cc(-c3ccc(N4CCOCC4)cc3)[nH]c(=O)c12" has what inhibition?
## Output 51

---

target: Proto-oncogene tyrosine-protein kinase Src (Homo sapiens, UniProt P12931); experiment: Inhibition of SRC at 30 uM by microfluidic mobility shift assay
Label Condition met when inhibition is at or above 20%; otherwise label Condition not met.

Would you please look over these solved cases?
smiles input	study system	class label
Cn1nc(N)c2c(=O)[nH]c(-c3ccccn3)cc21	Proto-oncogene tyrosine-protein kinase Src (Homo sapiens, UniProt P12931)	Condition not met
Cc1cc2c(c(N)nn2C)c(N2CCCCC2)n1	Proto-oncogene tyrosine-protein kinase Src (Homo sapiens, UniProt P12931)	Condition not met
Cc1cc2nn(-c3ccccc3)c(N)c2c(=O)[nH]1	Proto-oncogene tyrosine-protein kinase Src (Homo sapiens, UniProt P12931)	Condition met
COc1ccccc1-c1cc2nn(-c3ccccc3)c(N)c2c(=O)[nH]1	Proto-oncogene tyrosine-protein kinase Src (Homo sapiens, UniProt P12931)	Condition met
Cc1[nH]c(=O)c2c(N)n(-c3ccccc3)nc2c1-c1ccccc1	Proto-oncogene tyrosine-protein kinase Src (Homo sapiens, UniProt P12931)	Condition met

## Input Can "Nc1c2c(=O)[nH]c(-c3ccccc3)cc2nn1-c1ccccn1" be said to have inhibition at or above 20%?
## Output Condition met

## Input Let us now turn to "O=S(=O)(NCCNC/C=C/c1ccc(Br)cc1)c1cccc2cnccc12"
## Output Condition not met

## Input Please give the result for "COCCNc1nc(-c2ccccc2)cc2c1c(N)nn2C" too.
## Output Condition not met

## Input Similarly, "Nc1n[nH]c2cc(-c3cccnc3)[nH]c(=O)c12" ?
## Output Condition met

## Input Next up: "Cc1cc2c(c(NS(C)(=O)=O)nn2C)c(=O)[nH]1"
## Output Condition not met

Ref: ChEMBL document CHEMBL1811853
